This collection of values is drawn from paper PMC12416549.

Target: T1, TNFR1 (Homo sapiens, UniProt P19438)
T1 chain: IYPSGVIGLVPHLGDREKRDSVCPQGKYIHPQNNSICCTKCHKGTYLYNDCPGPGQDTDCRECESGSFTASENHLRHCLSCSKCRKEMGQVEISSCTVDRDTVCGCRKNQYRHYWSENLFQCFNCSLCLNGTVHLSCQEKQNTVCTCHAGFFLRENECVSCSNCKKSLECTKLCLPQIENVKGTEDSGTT
Test: yeast display SC50
Observation Type: apparent Kd (screen) (nM)

{"Binder": "L12W (designed binder) MTLQELLREEAWRRAEAEAFRYALELLAEKFPEQKEYLLDLAEEIESQIRSLSGVDVEDVRKFLDKEWAWVKELLAEHPAELAEVEAARAARLAELRAEVEAKVAA", "apparent Kd (screen), nM": 0.593}

(a) E67K (designed binder) MTLQELLREEALRRAEAEAFRYALELLAEKFPEQKEYLLDLAEEIESQIRSLSGVDVEDVRKFLDKKWAWVKELLAEHPAELAEVEAARAARLAELRAEVEAKVAA
(b) A91H (designed binder) MTLQELLREEALRRAEAEAFRYALELLAEKFPEQKEYLLDLAEEIESQIRSLSGVDVEDVRKFLDKEWAWVKELLAEHPAELAEVEAARAHRLAELRAEVEAKVAA
(c) V57T (designed binder) MTLQELLREEALRRAEAEAFRYALELLAEKFPEQKEYLLDLAEEIESQIRSLSGVDTEDVRKFLDKEWAWVKELLAEHPAELAEVEAARAARLAELRAEVEAKVAA
**Query** Number of binders to sort: 3. Sort criterion: apparent Kd (screen), ascending. Please list each label once, in the requested order.
**Result** b, c, a
(b: 0.593 nM, c: 1.05 nM, a: 2.73 nM)
